# Protocol details: Physicochemical properties: absorption and fluorescence (Table 1)
# QY quantum yield annotations
Lab note: jot the number down without any unit.

Known QY quantum yield results, listed for orientation:
COc1cc2oc(=O)cc(C[C@H](N)C(=O)O)c2cc1OC.O=C(O)C(F)(F)F [Example 9] : 0.60
COc1ccc2c(CC[C@H](N)C(=O)O)cc(=O)oc2c1.O=C(O)C(F)(F)F [Example 16] : 0.21
N[C@@H](Cc1c[nH]c2ccccc12)C(=O)O [W, tryptophan, reference compound] : 0.12
N[C@@H](Cc1cc(=O)oc2cc(O)ccc12)C(=O)O.O=C(O)C(F)(F)F [Example 6] : 0.49
N[C@@H](Cc1cc(=O)oc2cc(O)c(Cl)cc12)C(=O)O.O=C(O)C(F)(F)F [Example 10] : 0.54
COc1ccc2c(C[C@H](N)C(=O)O)cc(=O)oc2c1.CS(=O)(=O)O [Example 7] : 0.18

Could you tell me which QY quantum yield is on file for COc1cc(O)c2c(C[C@H](N)C(=O)O)cc(=O)oc2c1.O=C(O)C(F)(F)F [Example 12] ? 0.50

And for COc1ccc2c(C[C@@H](N)C(=O)O)cc(=O)oc2c1.O=C(O)C(F)(F)F [Example 8] ? 0.15

Hello, the source for this data is patent US20070161807A1, in case you need it.
